System under test: Thrombin (Homo sapiens)
Construct: purchased R&D
Experiment notes: Kinetic progress curves (kapp, K1, KI*, mechanism)
Format: biochemical
Measurement setup: read-out: Thrombin KI*; apparent equilibrium constant of the overall process; mean ± SD
Description: Because the compounds described in this paper were previously described as irreversible inhibitors, the IC50 value is inversely correlated with the second-order rate constant of inactivation. […] The inactivation rate constant was determined from the time course of inhibition. Kinetic assays were performed in the following manner. […] Progress curves were recorded in pseudo-first-order conditions ([I]0>>[E]0) and with less than 10% conversion of the substrate during the entire time course. […]
Experimental endpoint: pKi
# pKi = -log10(concentration in molar units)

Inquiry: # query: pKi of entry C[C@@H]1NC(=O)N[C@@H]1CCCCCC(=O)NCCOCCOCCOCCn1cc(CCCOC(=O)NC(CCCNC(=N)N)P(=O)(Oc2ccc(Cl)cc2)Oc2ccc(Cl)cc2)nn1 (some centres unmarked) [46b]
Reply text: 7.15

Inquiry: Also, C[C@@H]1NC(=O)N[C@@H]1CCCCCC(=O)NCCOCCOCCOCCn1cc(CCCOC(=O)NC(CCCNC(=N)N)P(=O)(Oc2ccccc2)Oc2ccccc2)nn1 (some centres unmarked) [45b] please.
Reply text: 5.94

----------
System under test: Trypsin-3 (recombinant trypsin-3) (Homo sapiens, UniProt P35030)
Construct: purchased R&D
Sequence (P35030 1-304): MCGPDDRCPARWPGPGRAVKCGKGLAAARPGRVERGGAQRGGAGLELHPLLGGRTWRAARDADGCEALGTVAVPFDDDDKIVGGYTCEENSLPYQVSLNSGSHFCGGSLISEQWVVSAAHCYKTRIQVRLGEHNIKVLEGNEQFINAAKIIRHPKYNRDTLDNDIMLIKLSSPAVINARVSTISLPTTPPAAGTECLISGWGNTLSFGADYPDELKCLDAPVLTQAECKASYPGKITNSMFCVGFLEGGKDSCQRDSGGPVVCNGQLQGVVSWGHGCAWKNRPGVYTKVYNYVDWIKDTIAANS
Experiment notes: IC50 determination, spectrophotometric protease assay
Format: biochemical
Define the label as class 1 when IC50 is strictly less than 40 nM and as class 0 in all remaining cases.

Inquiry: Below 40 nM on IC50? Entry C#CCCCOC(=O)NC(CCCN)P(=O)(Oc1ccccc1)Oc1ccccc1.O=C(O)C(F)(F)F (stereo not shown) [14b]
Reply text: class 0

Inquiry: Also, C#CCCCOC(=O)NC(Cc1ccc(NC(=N)N)cc1)P(=O)(Oc1ccc(NC(C)=O)cc1)Oc1ccc(NC(C)=O)cc1 (stereo not shown) [35b] please.
Reply text: class 1

Inquiry: Also, C[C@@H]1NC(=O)N[C@@H]1CCCCCC(=O)NCCOCCOCCOCCn1cc(CCCOC(=O)NC(Cc2ccc(NC(=N)N)cc2)P(=O)(Oc2ccccc2)Oc2ccccc2)nn1 (stereo partly shown) [50b] please.
Reply text: class 1

Inquiry: Also, C#CCCCOC(=O)NC(Cc1ccc(N)cc1)P(=O)(Oc1ccccc1)Oc1ccccc1 (stereo not shown) [16b] please.
Reply text: class 0

Inquiry: Also, C#CCCCOC(=O)NC(CCCCN)P(=O)(Oc1ccc(NC(=O)OC)cc1)Oc1ccc(NC(=O)OC)cc1 (stereo not shown) [30b] please.
Reply text: class 1

Inquiry: Also, C[C@@H]1NC(=O)N[C@@H]1CCCCCC(=O)NCCOCCOCCOCCn1cc(CCCOC(=O)NC(Cc2ccccc2)P(=O)(Oc2ccccc2)Oc2ccccc2)nn1 (stereo partly shown) [compound 42] please.
Reply text: class 0

Inquiry: Also, C#CCCCOC(=O)NC(Cc1ccc(N)cc1)P(=O)(Oc1ccc(Cl)cc1)Oc1ccc(Cl)cc1 (stereo not shown) [18b] please.
Reply text: class 0

Inquiry: Also, C#CCCCOC(=O)NC(Cc1ccc(NC(=N)N)cc1)P(=O)(Oc1ccccc1)Oc1ccccc1 (stereo not shown) [34b] please.
Reply text: class 1

Inquiry: Also, C#CCCCOC(=O)NC(Cc1ccccc1)P(=O)(Oc1ccccc1)Oc1ccccc1 (stereo not shown) [compound 12] please.
Reply text: class 0

Inquiry: Also, C#CCCCOC(=O)NC(C(C)C)P(=O)(Oc1ccccc1)Oc1ccccc1 (stereo not shown) [compound 13] please.
Reply text: class 0

Inquiry: Also, C#CCCCOC(=O)NC(Cc1ccc(CN)cc1)P(=O)(Oc1ccccc1)Oc1ccccc1 (stereo not shown) [22b] please.
Reply text: class 0

Inquiry: Also, C#CCCCOC(=O)NC(CCCCN)P(=O)(Oc1ccccc1)Oc1ccccc1.O=C(O)C(F)(F)F (stereo not shown) [29b] please.
Reply text: class 0

Inquiry: Also, C#CCCCOC(=O)NC(c1ccc(NC(=N)N)cc1)P(=O)(Oc1ccc(Cl)cc1)Oc1ccc(Cl)cc1 (stereo not shown) [39b] please.
Reply text: class 0

Inquiry: Also, CC(C)C(NC(=O)OCCCc1cn(CCOCCOCCOCCNC(=O)CCCCC[C@H]2NC(=O)N[C@H]2C)nn1)P(=O)(Oc1ccccc1)Oc1ccccc1 (stereo partly shown) [compound 44] please.
Reply text: class 0

Inquiry: Also, CC(=O)Nc1ccc(OP(=O)(Oc2ccc(NC(C)=O)cc2)C(Cc2ccc(NC(=N)N)cc2)NC(=O)OCCCc2cn(CCOCCOCCOCCNC(=O)CCCCC[C@H]3NC(=O)N[C@H]3C)nn2)cc1 (stereo partly shown) [52b] please.
Reply text: class 1

Inquiry: Also, C#CCCCOC(=O)NC(C1CCNCC1)P(=O)(Oc1ccccc1)Oc1ccccc1 (stereo not shown) [23b] please.
Reply text: class 0

Inquiry: Also, C#CCCCOC(=O)NC(c1ccc(N)cc1)P(=O)(Oc1ccccc1)Oc1ccccc1 (stereo not shown) [19b] please.
Reply text: class 0
